Taken from ChEMBL document CHEMBL4649990.

# target.or.system: Peregrin (Homo sapiens, UniProt P55201)
# Sequence (P55201 whole entry): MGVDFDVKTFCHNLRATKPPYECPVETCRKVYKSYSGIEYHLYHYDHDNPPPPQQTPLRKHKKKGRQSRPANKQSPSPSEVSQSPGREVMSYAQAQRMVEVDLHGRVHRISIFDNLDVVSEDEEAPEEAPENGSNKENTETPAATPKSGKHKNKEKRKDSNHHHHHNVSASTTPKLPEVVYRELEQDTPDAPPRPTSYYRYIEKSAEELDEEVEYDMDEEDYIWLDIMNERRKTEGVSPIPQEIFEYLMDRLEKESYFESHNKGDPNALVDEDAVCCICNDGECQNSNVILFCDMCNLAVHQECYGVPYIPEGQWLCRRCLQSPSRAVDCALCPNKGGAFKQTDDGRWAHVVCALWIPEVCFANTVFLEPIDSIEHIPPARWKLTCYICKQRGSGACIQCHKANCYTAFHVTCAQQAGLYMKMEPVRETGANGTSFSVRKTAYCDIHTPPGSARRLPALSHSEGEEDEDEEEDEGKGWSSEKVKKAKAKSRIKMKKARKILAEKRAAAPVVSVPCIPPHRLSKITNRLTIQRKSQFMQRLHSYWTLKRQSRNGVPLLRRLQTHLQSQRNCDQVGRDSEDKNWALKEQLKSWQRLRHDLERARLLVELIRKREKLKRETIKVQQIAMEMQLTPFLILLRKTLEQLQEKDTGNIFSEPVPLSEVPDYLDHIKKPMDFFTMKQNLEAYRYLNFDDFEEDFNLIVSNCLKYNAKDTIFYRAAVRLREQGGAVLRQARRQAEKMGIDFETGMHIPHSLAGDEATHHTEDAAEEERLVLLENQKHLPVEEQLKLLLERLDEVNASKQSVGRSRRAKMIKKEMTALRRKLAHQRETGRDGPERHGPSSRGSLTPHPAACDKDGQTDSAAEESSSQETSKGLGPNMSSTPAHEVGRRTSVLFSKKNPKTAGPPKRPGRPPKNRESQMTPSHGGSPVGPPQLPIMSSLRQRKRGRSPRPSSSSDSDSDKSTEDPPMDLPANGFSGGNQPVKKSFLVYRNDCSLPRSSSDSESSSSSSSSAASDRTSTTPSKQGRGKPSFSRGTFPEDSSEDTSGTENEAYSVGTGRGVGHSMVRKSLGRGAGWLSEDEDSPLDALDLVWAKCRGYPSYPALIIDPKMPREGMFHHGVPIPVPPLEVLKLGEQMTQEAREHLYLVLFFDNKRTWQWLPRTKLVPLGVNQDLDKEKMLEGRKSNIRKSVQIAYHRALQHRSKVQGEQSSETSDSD
assay.metric: IC50 (nM)
Report only the number, with the unit nM understood.

What does the data say about its IC50? Entry: CCOC(=O)Nc1cc(-c2ccc(C)c(NS(C)(=O)=O)c2)nn2c(C)nnc12
141
